# METHOD: Plasmatic concentration (AUC) of aminosteroids after a single subcutaneous injection in rat
# EXPERIMENTAL PARAMETERS: Table 5, subcutaneous one time, 2.3 mg/kg
Provide the reported AUC (24 h) of each item.
Report as a plain number; the unit ng·h/mL is understood.

Exercise: Provide measured AUC (24 h) value, entry: CC[C@]1(O)CC[C@H]2[C@@H]3CC[C@H]4C[C@H](O)[C@@H](N5CCN(C(=O)[C@@H]6CCCN6C(=O)c6cccc7ccccc67)CC5)C[C@]4(C)[C@H]3CC[C@@]21C
Solution: 681

Exercise: Provide measured AUC (24 h) value, entry: C[C@]12C[C@H](N3CCN(C(=O)[C@@H]4CCCN4C(=O)c4cccc5ccccc45)CC3)[C@@H](O)C[C@@H]1CC[C@@H]1[C@@H]2CC[C@]2(C)[C@@H](O)CC[C@@H]12
Solution: 552

Exercise: Provide measured AUC (24 h) value, entry: C[C@]12C[C@H](N3CCN(C(=O)[C@@H]4CCCN4C(=O)/C=C/c4ccccc4)CC3)[C@@H](O)C[C@@H]1CC[C@@H]1[C@@H]2CC[C@]2(C)[C@@H](O)CC[C@@H]12
Solution: 767

Exercise: Provide measured AUC (24 h) value, entry: C=C(C)[C@H]1CC=C(C(=O)N2CCC[C@H]2C(=O)N2CCN([C@H]3C[C@@]4(C)[C@@H](CC[C@@H]5[C@@H]4CC[C@]4(C)[C@@H](O)CC[C@@H]54)C[C@@H]3O)CC2)CC1
Solution: 830

----------
# METHOD: Plasmatic concentration (AUC) of aminosteroids after a single subcutaneous injection in rat
# EXPERIMENTAL PARAMETERS: Table 5, subcutaneous one time, 2.3 mg/kg
QUANTITY: AUC(12 h)

Exercise: Provide measured AUC(12 h) value, entry: C=C(C)[C@H]1CC=C(C(=O)N2CCC[C@H]2C(=O)N2CCN([C@H]3C[C@@]4(C)[C@@H](CC[C@@H]5[C@@H]4CC[C@]4(C)[C@@H](O)CC[C@@H]54)C[C@@H]3O)CC2)CC1 [PC-46]
Solution: 830 ng·h/mL

Exercise: Provide measured AUC(12 h) value, entry: C[C@]12C[C@H](N3CCN(C(=O)[C@@H]4CCCN4C(=O)/C=C/c4ccccc4)CC3)[C@@H](O)C[C@@H]1CC[C@@H]1[C@@H]2CC[C@]2(C)[C@@H](O)CC[C@@H]12 [PC-42]
Solution: 751 ng·h/mL

Exercise: Provide measured AUC(12 h) value, entry: CC[C@]1(O)CC[C@H]2[C@@H]3CC[C@H]4C[C@H](O)[C@@H](N5CCN(C(=O)[C@@H]6CCCN6C(=O)c6cccc7ccccc67)CC5)C[C@]4(C)[C@H]3CC[C@@]21C [LPC-37]
Solution: 525 ng·h/mL

Exercise: Provide measured AUC(12 h) value, entry: C[C@]12C[C@H](N3CCN(C(=O)[C@@H]4CCCN4C(=O)c4cccc5ccccc45)CC3)[C@@H](O)C[C@@H]1CC[C@@H]1[C@@H]2CC[C@]2(C)[C@@H](O)CC[C@@H]12 [PC-37]
Solution: 462 ng·h/mL

----------
# METHOD: in vivo
# EXPERIMENTAL PARAMETERS: male, Sprague-Dawley, rat, sc, 2.3 mg/kg, AUC (24 h)
QUANTITY: AUC(0-t) (ng·h/mL)
Report as a plain number; the unit ng·h/mL is understood.

Exercise: Provide measured AUC(0-t) value, entry: CC(=O)c1cccc(C(=O)N[C@@H](Cc2ccccc2)C(=O)N2CCN([C@H]3C[C@@]4(C)[C@@H](CC[C@@H]5[C@@H]4CC[C@]4(C)[C@@H](O)CC[C@@H]54)C[C@@H]3O)CC2)c1
Solution: 555

----------
# METHOD: Plasmatic concentration (AUC) of aminosteroids after a single subcutaneous injection in rat
# EXPERIMENTAL PARAMETERS: Table 5, subcutaneous one time, 2.3 mg/kg
Provide the reported AUC (7 h) of each item.
Report as a plain number; the unit ng·h/mL is understood.

Exercise: Provide measured AUC (7 h) value, entry: C[C@]12C[C@H](N3CCN(C(=O)[C@@H]4CCCN4C(=O)/C=C/c4ccccc4)CC3)[C@@H](O)C[C@@H]1CC[C@@H]1[C@@H]2CC[C@]2(C)[C@@H](O)CC[C@@H]12 [PC-42]
Solution: 641

Exercise: Provide measured AUC (7 h) value, entry: C[C@]12C[C@H](N3CCN(C(=O)[C@@H]4CCCN4C(=O)c4cccc5ccccc45)CC3)[C@@H](O)C[C@@H]1CC[C@@H]1[C@@H]2CC[C@]2(C)[C@@H](O)CC[C@@H]12 [PC-37]
Solution: 337

Exercise: Provide measured AUC (7 h) value, entry: C=C(C)[C@H]1CC=C(C(=O)N2CCC[C@H]2C(=O)N2CCN([C@H]3C[C@@]4(C)[C@@H](CC[C@@H]5[C@@H]4CC[C@]4(C)[C@@H](O)CC[C@@H]54)C[C@@H]3O)CC2)CC1 [PC-46]
Solution: 771

Exercise: Provide measured AUC (7 h) value, entry: CC[C@]1(O)CC[C@H]2[C@@H]3CC[C@H]4C[C@H](O)[C@@H](N5CCN(C(=O)[C@@H]6CCCN6C(=O)c6cccc7ccccc67)CC5)C[C@]4(C)[C@H]3CC[C@@]21C [LPC-37]
Solution: 372

----------
# METHOD: in vivo
# EXPERIMENTAL PARAMETERS: male, Sprague-Dawley, rat, sc, 2.3 mg/kg, AUC(12 h)
QUANTITY: AUC(0-t)
Quote the value and follow it with the unit of measurement.

Exercise: Provide measured AUC(0-t) value, entry: CC(=O)c1cccc(C(=O)N[C@@H](Cc2ccccc2)C(=O)N2CCN([C@H]3C[C@@]4(C)[C@@H](CC[C@@H]5[C@@H]4CC[C@]4(C)[C@@H](O)CC[C@@H]54)C[C@@H]3O)CC2)c1
Solution: 413 ng·h/mL

----------
# METHOD: in vivo
# EXPERIMENTAL PARAMETERS: male, Sprague-Dawley, rat, sc, 2.3 mg/kg, AUC (7 h)
QUANTITY: AUC(0-t) (ng·h/mL)
Report as a plain number; the unit ng·h/mL is understood.

Exercise: Provide measured AUC(0-t) value, entry: CC(=O)c1cccc(C(=O)N[C@@H](Cc2ccccc2)C(=O)N2CCN([C@H]3C[C@@]4(C)[C@@H](CC[C@@H]5[C@@H]4CC[C@]4(C)[C@@H](O)CC[C@@H]54)C[C@@H]3O)CC2)c1 [FC-48]
Solution: 290

----------
# System: normal lymphocytes from peripheral blood
# METHOD: Cell proliferation assay (MTS) on normal lymphocytes
# EXPERIMENTAL PARAMETERS: read-out: IC50 Lymph Norm.; Table 3; normal lymphocytes; 3 days incubation, MTS
QUANTITY: IC50 (µM)
Report as a plain number; the unit µM is understood.

Exercise: Provide measured IC50 value, entry: C=C(C)[C@H]1CC=C(C(=O)N2CCC[C@H]2C(=O)N2CCN([C@H]3C[C@@]4(C)[C@@H](CC[C@@H]5[C@@H]4CC[C@]4(C)[C@@H](O)CC[C@@H]54)C[C@@H]3O)CC2)CC1 [PC-46]
Solution: 9.3

Exercise: Provide measured IC50 value, entry: C[C@]12C[C@H](N3CCN(C(=O)[C@@H]4CCCN4C(=O)c4cccc5ccccc45)CC3)[C@@H](O)C[C@@H]1CC[C@@H]1[C@@H]2CC[C@]2(C)[C@@H](O)CC[C@@H]12 [PC-37]
Solution: 36

Exercise: Provide measured IC50 value, entry: C[C@]12C[C@H](N3CCN(C(=O)[C@@H]4CCCN4C(=O)/C=C/c4ccccc4)CC3)[C@@H](O)C[C@@H]1CC[C@@H]1[C@@H]2CC[C@]2(C)[C@@H](O)CC[C@@H]12 [PC-42]
Solution: 7.9

----------
# METHOD: in vivo
# EXPERIMENTAL PARAMETERS: male, Sprague-Dawley, rat, sc, 2.3 mg/kg, AUC (0-3 h)
Under this convention, yes (1) denotes AUC(0-t) strictly below 50 ng·h/mL and no (0) denotes AUC(0-t) at or above 50 ng·h/mL.

Exercise: Lab note: confirm whether the reported AUC(0-t) for this compound is below 50 ng·h/mL, equality not counting. compound: C[C@]12CC[C@H]3[C@@H](CCC4C[C@H](O)[C@@H](N5CCN(C(=O)[C@@H]6CCCN6C(=O)c6ccc7ccccc7n6)CC5)C[C@@]43C)[C@@H]1CC[C@@H]2O (stereo partly drawn)
Solution: no (0)

Exercise: Lab note: confirm whether the reported AUC(0-t) for this compound is below 50 ng·h/mL, equality not counting. compound: C[C@]12C[C@H](N3CCN(C(=O)[C@@H]4CCCN4C(=O)c4ccc5ccccc5c4)CC3)[C@@H](OC(=O)c3ccccc3C(=O)O)C[C@@H]1CC[C@@H]1[C@@H]2CC[C@]2(C)[C@@H](OC(=O)c3ccccc3C(=O)O)CC[C@@H]12
Solution: yes (1)

Exercise: Lab note: confirm whether the reported AUC(0-t) for this compound is below 50 ng·h/mL, equality not counting. compound: C[C@]12CC[C@H]3[C@@H](CCC4C[C@H](O)[C@@H](N5CCN(C(=O)[C@@H]6CCCN6C(=O)c6cc7ccccc7cn6)CC5)C[C@@]43C)[C@@H]1CC[C@@H]2O (stereo partly drawn)
Solution: no (0)

Exercise: Lab note: confirm whether the reported AUC(0-t) for this compound is below 50 ng·h/mL, equality not counting. compound: C[C@]12CC[C@H]3[C@@H](CCC4C[C@H](O)[C@@H](N5CCN(C(=O)[C@@H]6CCCN6C(=O)c6ccc7ncccc7c6)CC5)C[C@@]43C)[C@@H]1CC[C@@H]2O (stereo partly drawn)
Solution: no (0)

Exercise: Lab note: confirm whether the reported AUC(0-t) for this compound is below 50 ng·h/mL, equality not counting. compound: C[C@]12CC[C@H]3[C@@H](CCC4C[C@H](OS(N)(=O)=O)[C@@H](N5CCN(C(=O)[C@@H]6CCCN6C(=O)c6ccc7ccccc7c6)CC5)C[C@@]43C)[C@@H]1CC[C@@H]2OS(N)(=O)=O (stereo partly drawn)
Solution: yes (1)
